Task for the reader: assign each of the following compounds its reported MBC.
# Tested on: P. aeruginosa (PA01)
# Experimental Details: MIC and MBC by standardized broth dilution
# Assay type: cell-based, Pseudomonas aeruginosa
# Condition Details: P. aeruginosa, 99.9% killing; >1000 = beyond tested concentration range

input: Which MBC value is on record for CCCCC(CC)COC(=O)CC(C(=O)OCC(CC)CCCC)S(=O)(=O)[O-].CCCCCCCCCCCCCCCCCC[P+](C)(CCCCCCCCCCCCCCCCCC)CCCCCCCCCCCCCCCCCC [[P181818 1][AOT], trioctadecyl(methyl)phosphonium docusate] ?
output: >1000 μg mL^–1

input: Which MBC value is on record for CCCCC(CC)COC(=O)CC(C(=O)OCC(CC)CCCC)S(=O)(=O)[O-].CCCCCCCCCCCCCC[P+](CCCCCC)(CCCCCC)CCCCCC [[P666 14][AOT], Trihexyl(tetradecyl)phosphonium docusate] ?
output: >1000 μg mL^–1

input: Which MBC value is on record for CCCCCCCCCCCCCC[P+](CCCCCC)(CCCCCC)CCCCCC.O=S(=O)([N-]S(=O)(=O)C(F)(F)F)C(F)(F)F [[P666 14][Tf2N]] ?
output: >1000 μg mL^–1

input: Which MBC value is on record for CCCCC(CC)COC(=O)CC(C(=O)OCC(CC)CCCC)S(=O)(=O)[O-].CCCC[P+](CCO)(CCCC)CCCC (centres unmarked) [[P444 2OH][AOT]] ?
output: >1000 μg mL^–1

input: Which MBC value is on record for CCCCC(CC)COC(=O)CC(C(=O)OCC(CC)CCCC)S(=O)(=O)[O-].CCCCCCCCCCCCCC[P+](CCCCCCCC)(CCCCCCCC)CCCCCCCC [[P888 14][AOT], trioctyl(tetradecyl)phosphonium docusate] ?
output: 1000 μg mL^–1

These measurements were taken from paper PMC7160832.
